Data provenance: ChEMBL document CHEMBL1136983

assay: Solubility in water
Assay type: physicochemical
Each record here notes measured solubility.

>>> reported_measurement("C[C@@H](S[C@H]1CO[C@H](/C=C/C=C/c2ccc(C#N)cc2F)OC1)[C@@](Cn1cncn1)(OC(=O)COC(=O)CCC(=O)[O-])c1ccc(F)cc1F.[Na+]")
"> 10000 µg/mL"
>>> reported_measurement("C[C@@H](S[C@H]1CO[C@H](/C=C/C=C/c2ccc(C#N)cc2F)OC1)[C@@](Cn1cncn1)(OP(=O)([O-])O)c1ccc(F)cc1F.[Na+]")
"> 30000 µg/mL"
>>> reported_measurement("C[C@@H](S[C@H]1CO[C@H](/C=C/C=C/c2ccc(C#N)cc2F)OC1)[C@@](Cn1cncn1)(OC(=O)C[N+](C)(C)C)c1ccc(F)cc1F.[Cl-]")
"> 10000 µg/mL"

Entry `C[C@@H](S[C@H]1CO[C@H](/C=C/C=C/c2ccc(C#N)cc2F)OC1)[C@@](Cn1cncn1)(OC(=O)CN(C)C)c1ccc(F)cc1F` — recorded solubility = < 1000 µg/mL

====

assay: Bioavailability in rat at 2 mg/kg, iv
Format: ADME, organism-based
run conditions: in vivo
measurement label: bioavailability (%)

>>> reported_measurement("C[C@@H](S[C@H]1CO[C@H](/C=C/C=C/c2ccc(C#N)cc2F)OC1)[C@@](Cn1cncn1)(OC(=O)C[N+](C)(C)C)c1ccc(F)cc1F.[Cl-]")
3.3
>>> reported_measurement("C[C@@H](S[C@H]1CO[C@H](/C=C/C=C/c2ccc(C#N)cc2F)OC1)[C@](O)(Cn1cncn1)c1ccc(F)cc1F [EMBECONAZOLE]")
3.3

====

assay: Solubility in water
Assay type: physicochemical
measurement label: solubility

Answered cases to consult:
>>> reported_measurement("C[C@@H](S[C@H]1CO[C@H](/C=C/C=C/c2ccc(C#N)cc2F)OC1)[C@@](Cn1cncn1)(OC(=O)CCN)c1ccc(F)cc1F")
"< 1000 µg/mL"
>>> reported_measurement("C[C@@H](S[C@H]1CO[C@H](/C=C/C=C/c2ccc(C#N)cc2F)OC1)[C@@](Cn1cncn1)(OC(=O)CO)c1ccc(F)cc1F")
"< 1000 µg/mL"
>>> reported_measurement("C[C@@H](S[C@H]1CO[C@H](/C=C/C=C/c2ccc(C#N)cc2F)OC1)[C@@](Cn1cncn1)(OC(=O)CN)c1ccc(F)cc1F")
"< 1000 µg/mL"

Now take the following molecule into account.
Entry `C[C@@H](S[C@H]1CO[C@H](/C=C/C=C/c2ccc(C#N)cc2F)OC1)[C@@](Cn1cncn1)(OC(=O)COP(=O)([O-])O)c1ccc(F)cc1F.[Na+]` — recorded solubility = > 10000 µg/mL
